What Related substance was measured for each of the following?
# Experiment summary: Stability experiments under 40° C.±2° C. and 75% R.H±5% R.H (accelerated test)
# Format: physicochemical
# Protocol conditions: month 6; 40° C./75% R.H
Answers are plain numbers, in %.

CCC(C(C)OP(=O)([O-])[O-])n1ncn(-c2ccc(N3CCN(c4ccc(OCC5COC(Cn6cncn6)(c6ccc(F)cc6F)C5)cc4)CC3)cc2)c1=O.C[N+](C)(C)CCO.C[N+](C)(C)CCO.O.O.O.O.O (stereo not drawn) : 0.36
CC[C@@H]([C@H](C)OP(=O)(O)O)n1ncn(-c2ccc(N3CCN(c4ccc(OC[C@@H]5CO[C@@](Cn6cncn6)(c6ccc(F)cc6F)C5)cc4)CC3)cc2)c1=O.N=C(N)NCCC[C@H](N)C(=O)O [Comparative Example 5, Posaconazole Phosphate Monoarginine Salt] : 0.63

# ---- query compound ----
INPUT: May I ask what Related substance has been recorded for CC[C@@H]([C@H](C)OP(=O)([O-])[O-])n1ncn(-c2ccc(N3CCN(c4ccc(OC[C@@H]5CO[C@@](Cn6cncn6)(c6ccc(F)cc6F)C5)cc4)CC3)cc2)c1=O.O.O.O.O.O.[Na+].[Na+] ?
OUTPUT: 0.68

###

What Related substance was measured for each of the following?
# Experiment summary: Stability experiments under 40° C.±2° C. and 75% R.H±5% R.H (accelerated test)
# Type: physicochemical
# Protocol conditions: month 6; 40° C./75% R.H
Answers are plain numbers, in %.

CC[C@@H]([C@H](C)OP(=O)([O-])[O-])n1ncn(-c2ccc(N3CCN(c4ccc(OC[C@@H]5CO[C@@](Cn6cncn6)(c6ccc(F)cc6F)C5)cc4)CC3)cc2)c1=O.C[N+](C)(C)CCO.C[N+](C)(C)CCO [Comparative Example 1, Posaconazole Phosphate Bicholinate] : 0.35

# batch: return Related substance for each of the 3 compounds below
1. CC[C@@H]([C@H](C)OP(=O)(O)O)n1ncn(-c2ccc(N3CCN(c4ccc(OC[C@@H]5CO[C@@](Cn6cncn6)(c6ccc(F)cc6F)C5)cc4)CC3)cc2)c1=O.CNC[C@H](O)[C@@H](O)[C@H](O)[C@H](O)CO [Comparative Example 4]
2. CC[C@@H]([C@H](C)OP(=O)(O)O)n1ncn(-c2ccc(N3CCN(c4ccc(OC[C@@H]5CO[C@@](Cn6cncn6)(c6ccc(F)cc6F)C5)cc4)CC3)cc2)c1=O [Example 1, Posaconazole Phosphate Monocholinate]
3. CC[C@@H]([C@H](C)OP(=O)(O)O)n1ncn(-c2ccc(N3CCN(c4ccc(OC[C@@H]5CO[C@@](Cn6cncn6)(c6ccc(F)cc6F)C5)cc4)CC3)cc2)c1=O [Example 3]

OUTPUT:
[0.64, 0.16, 0.15]

###

What Content was measured for each of the following?
# Experiment summary: Stability experiments under 40° C.±2° C. and 75% R.H±5% R.H (accelerated test)
# Type: physicochemical
# Protocol conditions: month 1; 40° C./75% R.H
Remember to quote the unit after the number.

These recorded examples may help you get a feel for the data.
CC[C@@H]([C@H](C)OP(=O)(O)O)n1ncn(-c2ccc(N3CCN(c4ccc(OC[C@@H]5CO[C@@](Cn6cncn6)(c6ccc(F)cc6F)C5)cc4)CC3)cc2)c1=O [Example 1, Posaconazole Phosphate Monocholinate] : 99.87%
CC[C@@H]([C@H](C)OP(=O)(O)O)n1ncn(-c2ccc(N3CCN(c4ccc(OC[C@@H]5CO[C@@](Cn6cncn6)(c6ccc(F)cc6F)C5)cc4)CC3)cc2)c1=O.CNC[C@H](O)[C@@H](O)[C@H](O)[C@H](O)CO : 99.73%

# ---- query compound ----
INPUT: May I ask what Content has been recorded for CCC(C(C)OP(=O)([O-])[O-])n1ncn(-c2ccc(N3CCN(c4ccc(OCC5COC(Cn6cncn6)(c6ccc(F)cc6F)C5)cc4)CC3)cc2)c1=O.C[N+](C)(C)CCO.C[N+](C)(C)CCO.O.O.O.O.O (stereo not drawn) ?
OUTPUT: 99.86%

###

# Experiment summary: Solubility study
# Protocol conditions: isopropanol, organic solvent or mixture
Outcome measure: solubility
Remember to quote the unit after the number.

INPUT: May I ask what solubility has been recorded for CC[C@@H]([C@H](C)O)n1ncn(-c2ccc(N3CCN(c4ccc(OC[C@@H]5CO[C@@](Cn6cncn6)(c6ccc(F)cc6F)C5)cc4)CC3)cc2)c1=O [Posaconazole] ?
OUTPUT: 100 µg/mL

###

# Experiment summary: in vivo
# Protocol conditions: female, mouse, plasma, iv, 1 mg/kg
Outcome measure: concentration at 8 h (ng/mL)
Numbers only, in ng/mL.

INPUT: May I ask what concentration at 8 h has been recorded for CC[C@@H]([C@H](C)OP(=O)(O)O)n1ncn(-c2ccc(N3CCN(c4ccc(OC[C@@H]5CO[C@@](Cn6cncn6)(c6ccc(F)cc6F)C5)cc4)CC3)cc2)c1=O [Example 1, Posaconazole Phosphate Monocholinate] ?
OUTPUT: 7780

###

# Experiment summary: Hygroscopicity study (Chinese Pharmacopoeia 2015, 9103)
# Format: physicochemical
# Protocol conditions: 25° C.±1° C., saturated ammonium chloride solution, 24 hours
Outcome measure: Hygroscopic weight gain (%)
One number for each entry, in %.

These recorded examples may help you get a feel for the data.
CC[C@@H]([C@H](C)OP(=O)(O)O)n1ncn(-c2ccc(N3CCN(c4ccc(OC[C@@H]5CO[C@@](Cn6cncn6)(c6ccc(F)cc6F)C5)cc4)CC3)cc2)c1=O [Example 1, Posaconazole Phosphate Monocholinate] : 0.12
CC[C@@H]([C@H](C)OP(=O)([O-])[O-])n1ncn(-c2ccc(N3CCN(c4ccc(OC[C@@H]5CO[C@@](Cn6cncn6)(c6ccc(F)cc6F)C5)cc4)CC3)cc2)c1=O.C[N+](C)(C)CCO.C[N+](C)(C)CCO [Comparative Example 1, Posaconazole Phosphate Bicholinate] : 8.76
CC[C@@H]([C@H](C)OP(=O)([O-])[O-])n1ncn(-c2ccc(N3CCN(c4ccc(OC[C@@H]5CO[C@@](Cn6cncn6)(c6ccc(F)cc6F)C5)cc4)CC3)cc2)c1=O.O.O.O.O.O.[Na+].[Na+] : 12.01

# ---- query compound ----
INPUT: May I ask what Hygroscopic weight gain has been recorded for CCC(C(C)OP(=O)([O-])[O-])n1ncn(-c2ccc(N3CCN(c4ccc(OCC5COC(Cn6cncn6)(c6ccc(F)cc6F)C5)cc4)CC3)cc2)c1=O.C[N+](C)(C)CCO.C[N+](C)(C)CCO.O.O.O.O.O (stereo not shown) ?
OUTPUT: 11.81

###

# Experiment summary: Solubility study
# Protocol conditions: water
Outcome measure: solubility (µg/mL)
Answers are plain numbers, in µg/mL.

INPUT: May I ask what solubility has been recorded for CC[C@@H]([C@H](C)O)n1ncn(-c2ccc(N3CCN(c4ccc(OC[C@@H]5CO[C@@](Cn6cncn6)(c6ccc(F)cc6F)C5)cc4)CC3)cc2)c1=O ?
OUTPUT: 50

###

# Experiment summary: Stability experiments under 25° C.±2° C. and 65% R.H±5% R.H
# Protocol conditions: month 0; 25° C./65% R.H
Outcome measure: Description

CC[C@@H]([C@H](C)OP(=O)(O)O)n1ncn(-c2ccc(N3CCN(c4ccc(OC[C@@H]5CO[C@@](Cn6cncn6)(c6ccc(F)cc6F)C5)cc4)CC3)cc2)c1=O [Example 1, Posaconazole Phosphate Monocholinate] : White
CCC(C(C)OP(=O)([O-])[O-])n1ncn(-c2ccc(N3CCN(c4ccc(OCC5COC(Cn6cncn6)(c6ccc(F)cc6F)C5)cc4)CC3)cc2)c1=O.C[N+](C)(C)CCO.C[N+](C)(C)CCO.O.O.O.O.O (centres unmarked) [Comparative Example 2] : White

###

# Experiment summary: Stability experiments under 25° C.±2° C. and 65% R.H±5% R.H
# Protocol conditions: month 12; 25° C./65% R.H
What Related substance was measured for each of the following?

These recorded examples may help you get a feel for the data.
CC[C@@H]([C@H](C)OP(=O)([O-])[O-])n1ncn(-c2ccc(N3CCN(c4ccc(OC[C@@H]5CO[C@@](Cn6cncn6)(c6ccc(F)cc6F)C5)cc4)CC3)cc2)c1=O.O.O.O.O.O.[Na+].[Na+] : 0.59%
CC[C@@H]([C@H](C)OP(=O)(O)O)n1ncn(-c2ccc(N3CCN(c4ccc(OC[C@@H]5CO[C@@](Cn6cncn6)(c6ccc(F)cc6F)C5)cc4)CC3)cc2)c1=O [Example 3] : 0.16%

# ---- query molecule ----
INPUT: May I ask what Related substance has been recorded for CC[C@@H]([C@H](C)OP(=O)(O)O)n1ncn(-c2ccc(N3CCN(c4ccc(OC[C@@H]5CO[C@@](Cn6cncn6)(c6ccc(F)cc6F)C5)cc4)CC3)cc2)c1=O [Example 1, Posaconazole Phosphate Monocholinate] ?
OUTPUT: 0.16%
